Molecular target: T1, human nectin-4 on cells (human, UniProt Q96NY8 32-510)
T1 sequence: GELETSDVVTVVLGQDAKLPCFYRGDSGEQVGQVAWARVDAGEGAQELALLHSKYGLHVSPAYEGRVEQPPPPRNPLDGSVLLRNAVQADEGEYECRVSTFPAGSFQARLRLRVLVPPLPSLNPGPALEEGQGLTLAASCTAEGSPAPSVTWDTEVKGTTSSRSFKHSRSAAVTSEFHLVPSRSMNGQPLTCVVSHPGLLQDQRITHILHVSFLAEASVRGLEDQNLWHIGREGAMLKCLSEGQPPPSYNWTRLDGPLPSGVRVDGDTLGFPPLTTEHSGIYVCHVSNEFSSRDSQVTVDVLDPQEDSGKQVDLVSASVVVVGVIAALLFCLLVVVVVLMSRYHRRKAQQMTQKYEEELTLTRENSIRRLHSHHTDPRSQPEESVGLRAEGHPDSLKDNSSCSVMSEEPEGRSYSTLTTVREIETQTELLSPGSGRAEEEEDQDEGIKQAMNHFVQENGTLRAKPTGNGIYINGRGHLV
Assay: cell-based or functional assay
measure.name: Cytotoxicity IC50, T24 Nectin-4 clone 108 cells (nM)
Write the value in nM as a bare number.

binder: Ab6 ADC (Ab6 conjugated as in Formula XI, DAR of 8) (antibody, human IgG1, lambda, L234A L235A, V domains shown, camptothecin analog linker-payload of Formula XI on cysteine thiols after full reduction, DAR of 8 per antibody; positions not given, Antibody-drug conjugate of Ab6; also called Ab6 (ADC column)) VH: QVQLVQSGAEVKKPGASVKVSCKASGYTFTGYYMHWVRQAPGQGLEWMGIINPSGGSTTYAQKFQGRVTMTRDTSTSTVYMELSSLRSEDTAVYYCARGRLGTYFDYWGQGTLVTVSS VL: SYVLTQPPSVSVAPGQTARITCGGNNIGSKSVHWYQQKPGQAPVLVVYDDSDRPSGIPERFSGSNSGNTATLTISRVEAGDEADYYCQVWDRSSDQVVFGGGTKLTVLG
recorded.result: 0.0783

binder: Ab3 ADC (Ab3 conjugated as in Formula XI, DAR of 8) (antibody, human IgG1, kappa, L234A L235A, V domains shown, camptothecin analog linker-payload of Formula XI on cysteine thiols after full reduction, DAR of 8 per antibody; positions not given, Antibody-drug conjugate of Ab3; also called Ab3 (ADC column)) VH: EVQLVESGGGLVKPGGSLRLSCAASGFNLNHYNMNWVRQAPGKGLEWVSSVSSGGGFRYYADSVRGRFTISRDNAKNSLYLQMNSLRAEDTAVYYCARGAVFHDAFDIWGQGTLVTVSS VL: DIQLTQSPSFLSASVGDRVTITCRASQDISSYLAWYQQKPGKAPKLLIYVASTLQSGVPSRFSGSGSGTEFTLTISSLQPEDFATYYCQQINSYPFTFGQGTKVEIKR
recorded.result: 0.0825

binder: Ab1a ADC (Ab1a conjugated as in Formula XI, DAR of 8) (antibody, human IgG1, kappa, L234A L235A, V domains shown, camptothecin analog linker-payload of Formula XI on cysteine thiols after full reduction, DAR of 8 per antibody; positions not given, Antibody-drug conjugate of Ab1a; also called Ab1a (ADC column)) VH: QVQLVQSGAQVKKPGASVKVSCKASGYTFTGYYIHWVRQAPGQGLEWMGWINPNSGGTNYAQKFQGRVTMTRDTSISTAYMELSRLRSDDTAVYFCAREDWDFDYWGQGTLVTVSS VL: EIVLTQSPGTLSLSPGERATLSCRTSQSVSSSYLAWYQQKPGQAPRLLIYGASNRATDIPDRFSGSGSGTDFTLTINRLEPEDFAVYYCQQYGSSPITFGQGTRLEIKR
recorded.result: 0.0729

Exam item: Which measured Cytotoxicity IC50, T24 Nectin-4 clone 108 cells value corresponds to Ab7 ADC (Ab7 conjugated as in Formula XI, DAR of 8) (antibody, human IgG1, lambda, L234A L235A, V domains shown, camptothecin analog linker-payload of Formula XI on cysteine thiols after full reduction, DAR of 8 per antibody; positions not given, Antibody-drug conjugate of Ab7; also called Ab7 (ADC column)) VH: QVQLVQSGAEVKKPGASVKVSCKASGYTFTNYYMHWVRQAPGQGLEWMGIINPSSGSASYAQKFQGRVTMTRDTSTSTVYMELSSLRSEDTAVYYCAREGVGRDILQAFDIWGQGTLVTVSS VL: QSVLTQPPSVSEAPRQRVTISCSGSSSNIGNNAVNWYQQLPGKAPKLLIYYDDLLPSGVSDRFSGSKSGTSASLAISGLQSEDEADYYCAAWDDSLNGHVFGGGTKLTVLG ?
Marked response: 0.0801

Exam item: # lookup: Cytotoxicity IC50, T24 Nectin-4 clone 108 cells of Ab4 ADC (Ab4 conjugated as in Formula XI, DAR of 8) (antibody, human IgG1, kappa, L234A L235A, V domains shown, camptothecin analog linker-payload of Formula XI on cysteine thiols after full reduction, DAR of 8 per antibody; positions not given, Antibody-drug conjugate of Ab4; also called Ab4 (ADC column)) VH: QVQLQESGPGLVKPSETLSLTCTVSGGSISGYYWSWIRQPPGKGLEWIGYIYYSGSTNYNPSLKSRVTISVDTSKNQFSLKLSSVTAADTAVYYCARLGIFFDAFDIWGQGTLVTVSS VL: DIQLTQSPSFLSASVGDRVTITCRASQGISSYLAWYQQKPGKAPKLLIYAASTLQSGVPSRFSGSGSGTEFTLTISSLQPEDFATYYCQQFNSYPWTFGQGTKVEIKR
Marked response: 0.115

Exam item: Cytotoxicity IC50, T24 Nectin-4 clone 108 cells lookup needed for Ab5 ADC (Ab5 conjugated as in Formula XI, DAR of 8) (antibody, human IgG1, kappa, L234A L235A, V domains shown, camptothecin analog linker-payload of Formula XI on cysteine thiols after full reduction, DAR of 8 per antibody; positions not given, Antibody-drug conjugate of Ab5; also called Ab5 (ADC column)) VH: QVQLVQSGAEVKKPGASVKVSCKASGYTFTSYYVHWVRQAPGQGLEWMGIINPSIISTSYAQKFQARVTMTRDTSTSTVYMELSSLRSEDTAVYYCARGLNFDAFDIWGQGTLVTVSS VL: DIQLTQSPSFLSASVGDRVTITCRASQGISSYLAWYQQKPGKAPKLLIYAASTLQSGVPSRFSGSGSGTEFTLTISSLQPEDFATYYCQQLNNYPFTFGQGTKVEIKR , thanks.
Marked response: 0.0994

Exam item: Report Cytotoxicity IC50, T24 Nectin-4 clone 108 cells for Ab8 ADC (Ab8 conjugated as in Formula XI, DAR of 8) (antibody, human IgG1, lambda, L234A L235A, V domains shown, camptothecin analog linker-payload of Formula XI on cysteine thiols after full reduction, DAR of 8 per antibody; positions not given, Antibody-drug conjugate of Ab8; also called Ab8 (ADC column)) VH: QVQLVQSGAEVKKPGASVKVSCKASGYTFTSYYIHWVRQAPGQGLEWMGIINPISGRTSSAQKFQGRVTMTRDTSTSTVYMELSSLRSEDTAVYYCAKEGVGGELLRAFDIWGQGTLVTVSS VL: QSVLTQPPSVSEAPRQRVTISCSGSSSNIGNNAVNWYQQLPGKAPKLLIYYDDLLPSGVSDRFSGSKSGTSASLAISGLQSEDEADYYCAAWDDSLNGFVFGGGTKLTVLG please.
Marked response: 0.088
